system: PC-3 prostate; assay: NCI tumour cell line growth inhibition, 48 h; in the data active = GI50 below about 0.43 µM; inactive = the rest
Outcomes: 1.0 (active), 0.0 (inactive)

molecule | class.name
CCC1C(C)C=NN1c1nc(N)nc(C(C#N)=Nc2ccc(N(C)C)cc2)n1 (stereo not drawn) | 0.0
Cc1c(Cl)c(=O)oc2cc(OC/C=C3\CCC(=O)O3)ccc12 | 0.0
O=C(CSCC(=O)N/N=C/c1ccccc1O)N/N=C\c1ccccc1O | 0.0
CC(C)(C)c1cc(C(=O)Nc2ccc(C(=O)NCCN)cc2)cc(C(C)(C)C)c1 | 0.0
Nc1ccccc1C#C/C=C\C#CC#C/C=C\C#Cc1ccccc1N | 0.0
C/C=C/C/C=C/[C@H](C)C[C@H](O)[C@@H]1C[C@@H]2O[C@H]2/C=C/[C@@H]2OC(C)(C)O[C@H]2/C=C/C[C@H](C)CC(=O)O1 | 0.0
Cc1ccc(S(=O)(=O)OCC#CCOS(=O)(=O)c2ccc(C)cc2)cc1 | 0.0
NCCCOc1cc2ccccc2cc1C(=O)Nc1ccc(Cl)cc1OC(=O)c1cc2ccccc2cc1OCCCN | 0.0
Cc1cc(-c2nnc(/C=C/c3ccc4c(c3)OCO4)o2)n[nH]1 | 0.0
Nc1c(C(=O)Nc2ccccn2)sc2nc3c(cc12)C(O)CCC3 (stereo not drawn) | 0.0
CCCCCCCCCCCCCCCCCCNCc1ccc(Cl)cc1 | 0.0
[N-]=[N+]=NCCCn1c2c(c3ccc([N+](=O)[O-])cc3c1=O)C(=O)c1cc3c(cc1-2)OCO3 | 0.0
C=C1c2ccccc2C(=O)c2c1c1c(C(=O)OC)c(OC(=O)OCc3ccc([N+](=O)[O-])cc3)ccc1n2Cc1ccccc1 | 1.0
O=S(=O)(NCCNc1nccc(-c2c(-c3ccc(F)c(O)c3)nc3sccn23)n1)c1ccc(Cl)cc1 | 0.0
N#CC1=C(N)NC(=S)NC1c1ccc(-c2ccc(-c3nc4ccccc4o3)cc2)s1 (stereo not drawn) | 0.0
Clc1ccc(C2CC(c3cccc(Nc4ccncc4)c3)=NN2c2ccc(Cl)cc2)cc1 (stereo not drawn) | 0.0
Cc1ccc(C(=O)c2sc3nc4c(cc3c2N)CCCC4)c(C)c1 | 0.0
COc1cc(Cl)cc(-c2nn(-c3cccc(NC(=O)Nc4cccc(C(F)(F)F)c4)c3)cc2-c2ccncc2)c1 | 1.0

Taken from PubChem BioAssay (NCI).
